Source of measurements: patent US8580790B2

melting point for assorted compounds

{"columns": ["smiles_str", "melting point"],
 "data": [
  ["O=C(CN1CCN(c2ccc(C(F)(F)F)cn2)C(=O)C1)N1CCc2nn(-c3ccccn3)cc2C1", "139 to 140 °C"],
  ["C[C@@H]1CN(c2ccc(C(F)(F)F)cn2)C[C@H](C)N1CC(=O)N1CCc2nc(-c3ccccc3)[nH]c2C1", "189 to 192 °C"],
  ["O=C(CN1CCN(c2ccc(C(F)(F)F)cn2)C(=O)C1)N1CCc2nc(-c3ccccc3)oc2C1", "175 °C"],
  ["Cc1nc(-c2ccc(N3C[C@@H](C)N(CC(=O)N4CCc5nn(-c6ccccc6)cc5C4)[C@@H](C)C3)nc2)no1", "163 to 164 °C"],
  ["O=C(CN1CCN(c2ccc(C(F)(F)F)cn2)C(=O)C1)N1CCc2nc(-c3ccccc3)[nH]c2C1", "198 to 200 °C"],
  ["O=C(CN1CC2CCC(C1)N2c1ncc(F)cn1)N1CCc2c(cnn2-c2ccc(C(F)(F)F)cc2)C1", "162 to 164 °C"],
  ["O=C(CN1CC2CCC(C1)N2c1cccnc1)N1CCc2nn(-c3ccc(C(F)(F)F)cn3)cc2C1", "150 to 151 °C"],
  ["O=C(O)c1ccc(N2CC3CCC(C2)N3CC(=O)N2CCc3nn(-c4ccccc4)cc3C2)nc1", "207 to 208 °C"]
]}

* * *

pIC50 for assorted molecules
Target: human p75^NTR receptor (Homo sapiens)
Construct: the whole form of the human p75^NTR receptor; expressed in transfected cells; the soluble AP fusion comes from the supernatant of transiently transfected HEK293 cells
Sequence (P08138 29-427): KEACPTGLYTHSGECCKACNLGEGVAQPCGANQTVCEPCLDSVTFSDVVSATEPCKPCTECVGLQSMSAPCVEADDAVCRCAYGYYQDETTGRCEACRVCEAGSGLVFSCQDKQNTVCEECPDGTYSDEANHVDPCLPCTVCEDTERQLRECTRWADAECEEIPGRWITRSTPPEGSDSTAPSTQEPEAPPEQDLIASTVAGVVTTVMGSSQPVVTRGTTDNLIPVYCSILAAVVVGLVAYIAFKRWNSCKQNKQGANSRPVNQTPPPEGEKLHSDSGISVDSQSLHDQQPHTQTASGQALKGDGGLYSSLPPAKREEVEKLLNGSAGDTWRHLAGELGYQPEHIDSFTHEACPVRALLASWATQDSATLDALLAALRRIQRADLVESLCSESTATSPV
Assay: Dimerization of the p75NTR receptor independently of its ligand (soluble p75NTR-alkaline phosphatase binding to SK-N-BE Bep 75 cells)
Format: cell-based
Conditions: soluble p75NTR-alkaline phosphatase 10 nM, 1 h preincubation at 37° C.
Method: The SK-N-BE parent strain (human neuroblastoma) and the Bep 75 clone, stably expressing the whole form of the human p75^NTR receptor (SK-N-BE Bep 75) are cultured conventionally in an RPMI culture medium containing FCS (5%), sodium pyruvate (1 mM) and glutamine (4 mM). For the SK-N-BE Bep 75 cells, hygromycin ([…] of medium) is added as selection agent. Study of the dimerization of the p75^NTR receptor independently of its ligand. […]
pIC50: −log10 of the molar value.

{"columns": ["smiles_str", "tested_on", "pIC50"],
 "data": [
  ["COC(=O)c1ccc(N2C3CCC2CN(CC(=O)N2CCc4nn(-c5ccccc5)cc4C2)C3)nc1", "human p75^NTR receptor (Homo sapiens)", 7.85],
  ["O=C(O)c1ccc(N2C3CCC2CN(CC(=O)N2CCc4nn(-c5ccccc5)cc4C2)C3)nc1", "human p75^NTR receptor (Homo sapiens)", 8.81],
  ["C[C@@H]1CN(c2ccc(C(F)(F)F)cn2)C[C@H](C)N1CC(=O)N1CCc2nc(-c3ccccc3)sc2C1", "human p75^NTR receptor (Homo sapiens)", 9.14],
  ["O=C(CN1CCN(c2ccc(C(F)(F)F)cn2)C(=O)C1)N1CCc2nc(-c3ccccc3)sc2C1", "human p75^NTR receptor (Homo sapiens)", 8.72]
]}

* * *

Structures can show the parent of a compound that is named as a salt.

{"columns": ["compound", "melting point"],
 "data": [
  ["COC(=O)c1ccc(N2C[C@@H](C)N(CC(=O)N3CCc4c(cnn4C(C)(C)C)C3)[C@@H](C)C2)nc1", "134 to 135 °C"],
  ["C[C@@H]1CN(c2ccc(C(F)(F)F)cn2)C[C@H](C)N1CC(=O)N1CCc2nn(CC(F)(F)F)cc2C1 (as salt: oxalate)", "151 to 153 °C"],
  ["COC(=O)c1ccc(N2C3CCC2CN(CC(=O)N2CCc4nc(-c5ccc(OC)cc5)sc4C2)C3)nc1", "159 to 160 °C"],
  ["CCn1cc2c(n1)CCN(C(=O)CN1CC3CCC(C1)N3c1ccc(C(F)(F)F)cn1)C2", "99 to 100 °C"],
  ["C[C@@H]1CN(c2ccc(-c3nnco3)cn2)C[C@H](C)N1CC(=O)N1CCc2nn(-c3ccccc3)cc2C1", "189 to 190 °C"],
  ["C[C@@H]1CN(c2cccnc2)C[C@H](C)N1CC(=O)N1CCc2nn(-c3ccc(F)cn3)cc2C1", "180 to 181 °C"],
  ["C[C@@H]1CN(CC(=O)N2CCc3nc(-c4ccccc4)sc3C2)[C@@H](C)CN1c1ccc(C#N)cn1", "159 to 160 °C"]
]}
